organism: Homo sapiens; assay: Selectivity ratio of relative binding affinity for full-length human estrogen receptor beta to ratio of relative binding affinity for full length human estrogen receptor alpha
This section presents compounds with their documented RBA values.
Numeric only. Scale: %

Previously resolved entries follow.
Cc1cc(CC(C#N)c2ccc(O)cc2)ccc1O (stereo unspecified) : 139
CC(c1ccc(O)cc1)C(C#N)c1ccc(O)cc1 (stereo unspecified) : 11
N#CC(Cc1ccc(O)c(I)c1)c1ccc(O)cc1 (stereo unspecified) : 140
N#CC(Cc1ccc(O)c(F)c1)c1ccc(O)cc1 (stereo unspecified) : 272
N#CC(Cc1ccc(O)c(O)c1)c1ccc(O)cc1 (stereo unspecified) : 106
N#CC(c1ccc(O)cc1)C(CF)c1ccc(O)cc1 (stereo unspecified) : 21

As a next step, examine the compound that follows.
What value of measured RBA is listed for N#CC(Cc1ccc(O)c(Cl)c1)c1ccc(O)cc1 (stereo unspecified) ? 112

====

This section presents compounds with their documented RBA values.
species: Homo sapiens; assay: Selectivity ratio of relative binding affinity for full-length human estrogen receptor beta to ratio of relative binding affinity for full length human estrogen receptor alpha
Numeric only. Scale: %

Previously resolved entries follow.
N#CC(Cc1ccc(O)c(Br)c1)c1ccc(O)cc1 (centres undefined) : 108
N#CC(Cc1ccc(O)c(CO)c1)c1ccc(O)cc1 (centres undefined) : 19
N#CC(Cc1ccc(O)c(CCF)c1)c1ccc(O)cc1 (centres undefined) : 58

As a next step, examine the compound that follows.
What value of measured RBA is listed for N#CC(Cc1ccc(O)c(CCCF)c1)c1ccc(O)cc1 (centres undefined) ? 45

Source: ChEMBL document CHEMBL1138623
